# System: J774
# Assay Explanation: Inhibition of PI3K/Akt in mouse J774 cells assessed as reduction in LPS-induced Akt phosphorylation at Ser473 at 30 uM after 4 hrs by Western blot analysis
# Format: cell-based
Calls of active or inactive are those of the source. The rule behind the calls is not given here.
Possible outcomes: active, inactive

1) C=CCOc1cc(O)cc(/C=C/c2ccccc2)c1	active
2) Oc1cc(/C=C/c2ccccc2)cc(OCc2ccccc2)c1	inactive
3) CCCOc1cc(O)cc(/C=C/c2ccccc2)c1	inactive
4) CC(C)(C)Oc1cc(O)cc(/C=C/c2ccccc2)c1	inactive
5) CCOc1cc(O)cc(/C=C/c2ccccc2)c1	active

----------
# Test system: J774
# Assay Explanation: Antiinflammatory activity in mouse J774 cells assessed as reduction in LPS-induced MCP1 expression after 24 hrs by ELISA
# Format: functional, cell-based
# Condition: J774, 24 h
Measured Quantity: IC50 (µM)

1. COc1cc(/C=C/c2ccc(O)cc2)cc(OC)c1	10.5
2. O=c1cc(N2CCOCC2)oc2c(-c3ccccc3)cccc12	3.7
3. Oc1cc(O)cc(/C=C/c2ccc(O)c(O)c2)c1	4
4. COc1ccc(/C=C/c2cc(O)cc(O)c2)cc1O	19.4
5. COc1cc(O)cc(/C=C/c2ccccc2)c1	23.7
6. Oc1cc(O)cc(/C=C/c2ccccc2)c1	38.7
7. Oc1ccc(/C=C/c2cc(O)cc(O)c2)cc1	13.6
